# STUDY_SYSTEM: OTUB2 (OTUB2A) (Homo sapiens, UniProt Q96DC9)
# Construct: full length residues 1-234, E. coli BL21(DE3)-R3, His tag removed by TEV, construct 27312 Da
# Sequence (Q96DC9 whole entry, the tested form may be a part): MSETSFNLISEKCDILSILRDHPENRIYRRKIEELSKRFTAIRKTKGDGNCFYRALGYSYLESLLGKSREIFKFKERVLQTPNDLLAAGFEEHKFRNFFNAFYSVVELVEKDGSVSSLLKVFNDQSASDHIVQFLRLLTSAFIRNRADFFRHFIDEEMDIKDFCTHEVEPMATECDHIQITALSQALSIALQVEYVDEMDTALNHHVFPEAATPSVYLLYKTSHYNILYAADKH
# Design: Intact protein LC/MS covalent labelling, fragments in pools of five, 200 uM each, 4 °C
# REPORTED_CONDITIONS: 24 h, 4 °C, pool of five; 200 µM; covalent
RECORDED_ENDPOINT: OTUB2

Example entries and their recorded answers appear below.
>>> observed("O=C(CCl)Nc1cc2c(cc1Cl)OCO2")
0.27
>>> observed("C=CC(=O)NCC1=CS(=O)(=O)c2ccccc21")
0.04
>>> observed("O=C(CCl)N1CCCCCC1")
0
>>> observed("O=C(CCl)N1CCc2ccc([N+](=O)[O-])cc21")
0
>>> observed("CN(Cc1ccc(Br)cc1)C(=O)CCl")
0

What does the record list as OTUB2 for C=CC(=O)N1CCCN(S(=O)(=O)c2cccc3cnccc23)CC1 ? 0

What does the record list as OTUB2 for Cl.O=C(CCl)NCc1cccnc1 ? 0.05

What does the record list as OTUB2 for Cc1cccc(CNC(=O)CCl)c1 ? 0.86

Origin of values: paper PMC6556873
